# System: HeLa
# Assay: Antitumor activity against human HeLa cells assessed as inhibition of cell growth by MTT assay
# Format: functional, cell-based
pIC50: −log10 of the molar value.
Measurement kind: pIC50

>  <Compound>
CC1(C)C2CCC1(C)C(OC(=O)/C=C/c1ccc(O)c(O)c1[N+](=O)[O-])C2 (stereo not given)

>  <Measurement kind>
pIC50

>  <Value>
4.86

$$$$
>  <Compound>
CCCOC(=O)/C=C/c1ccc(O)c(O)c1

>  <Measurement kind>
pIC50

>  <Value>
4.54

$$$$
>  <Compound>
O=C(/C=C/c1cc(O)c(O)c(Br)c1)NC12CC3CC(CC(C3)C1)C2

>  <Measurement kind>
pIC50

>  <Value>
4.48

$$$$
>  <Compound>
COc1cc(/C=C/C(=O)NC23CC4CC(CC(C4)C2)C3)cc(Cl)c1O

>  <Measurement kind>
pIC50

>  <Value>
4.01

$$$$
>  <Compound>
COC(=O)/C=C/c1ccc(O)c(O)c1 [METHYLCAFFEATE]

>  <Measurement kind>
pIC50

>  <Value>
4.28

$$$$
